Target: T1, recombinant human 4R0N tau (human, UniProt P10636 2-758)
T1 construct: also called recombinant 4R0N human tau; P10636-6
T1 sequence (P10636 other isoform, or with tags, fused parts or gaps limits assumed): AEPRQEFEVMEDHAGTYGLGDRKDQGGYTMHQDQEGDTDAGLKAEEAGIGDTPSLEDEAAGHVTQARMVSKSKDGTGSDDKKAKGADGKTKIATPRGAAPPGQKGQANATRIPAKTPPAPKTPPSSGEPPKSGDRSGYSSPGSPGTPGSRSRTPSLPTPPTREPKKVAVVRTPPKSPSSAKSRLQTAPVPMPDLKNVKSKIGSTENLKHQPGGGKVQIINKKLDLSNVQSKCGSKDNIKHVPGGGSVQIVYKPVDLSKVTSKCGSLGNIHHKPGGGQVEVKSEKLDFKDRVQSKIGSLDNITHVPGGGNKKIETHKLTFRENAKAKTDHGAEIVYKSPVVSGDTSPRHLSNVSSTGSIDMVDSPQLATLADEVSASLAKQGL
Experiment: SPR Biacore T200; antibody captured by anti-human Fc; tau as analyte; global 1:1 fit
VALUE_TYPE: kon (M⁻¹ s⁻¹)
Please state the figure in M⁻¹ s⁻¹; there is no need to write the unit.

BINDER	VALUE_TYPE	VALUE_UNITS	VALUE_REPORTED
hu9F5VHv10/hu9F5VLv9_DIM8 (antibody, V domains shown) VH: EVQLVQSGAEVKKPGATVKISCKASGFNIKDDYMNWVKQRPEKGLEWIGWIDPENGDTEYASKFQGRATMTADTSTNTAYMELSSLRSEDTAVYYCTTSNGWGQGTLVTVSS VL: DIQMTQSPFSLPVTPGESASISCRSSKSLGHSNGITYLYWYQQKPGQSPQLLIYQKSNRASGVPDRFSSSGSGTDFTLKISRVEAEDVGVYYCAQNIELPLTFGQGTKLEIK	kon	M⁻¹ s⁻¹	2.71e+06
hu9F5VHv9/hu9F5VLv8_DIM25 (antibody, V domains shown) VH: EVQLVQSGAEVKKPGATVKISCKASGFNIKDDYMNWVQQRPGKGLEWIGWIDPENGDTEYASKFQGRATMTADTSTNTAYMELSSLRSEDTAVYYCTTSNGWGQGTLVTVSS VL: DIQMTQSPFSLPVTPGESASISCRSSKSLGHSNGITYLYWYIQKPGQSPQLLIYQESNRASGVPNRFSSSGSGTDFTLKISRVEAEDVGVYYCAQNGELPLTFGQGTKLEIK	kon	M⁻¹ s⁻¹	1.3e+07
hu9F5VHv9/hu9F5VLv8_DIM27 (antibody, V domains shown) VH: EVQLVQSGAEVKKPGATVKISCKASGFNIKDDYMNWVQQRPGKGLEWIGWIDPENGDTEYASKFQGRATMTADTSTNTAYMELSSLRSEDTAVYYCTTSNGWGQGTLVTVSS VL: DIQMTQSPFSLPVTPGESASISCRSSKSLLHSNGITYLYWYQQKPGQSPQLLIYQGSNRASGVPNRFSSSGSGTDFTLKISRVEAEDVGVYYCAQNIELPLTFGQGTKLEIK	kon	M⁻¹ s⁻¹	2.41e+06
hu9F5VHv9/hu9F5VLv8_DIM17 (antibody, V domains shown) VH: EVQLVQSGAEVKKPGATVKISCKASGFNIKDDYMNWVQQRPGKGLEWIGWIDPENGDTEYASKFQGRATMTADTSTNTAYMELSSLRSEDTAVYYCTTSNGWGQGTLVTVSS VL: DIQMTQSPFSLPVTPGESASISCRSSKSLSHSNGITYLYWYGQKPGQSPQLLIYQGSNTASGVPNRFSSSGSGTDFTLKISRVEAEDVGVYYCAQNIELPLTFGQGTKLEIK	kon	M⁻¹ s⁻¹	2.54e+06

We next turn to a different binder, shown below.
q: Find the measured kon of hu9F5VHv9/hu9F5VLv8_DIM11 (antibody, V domains shown) VH: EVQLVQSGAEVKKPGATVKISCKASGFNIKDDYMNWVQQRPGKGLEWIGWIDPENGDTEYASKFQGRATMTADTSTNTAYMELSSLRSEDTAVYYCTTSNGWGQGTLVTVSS VL: DIQMTQSPFSLPVTPGESASISCRSSKSLGHSNGITYLYWYGQKPGQSPQLLIYQGSNRASGVPNRFSSSGSGTDFTLKISRVEAEDVGVYYCAQNIELPLTFGQGTKLEIK and report it.
a: 1.42e+06
